- tgt: MCR-1 (Homo sapiens, UniProt Q01726)
- Construct: expressed in transfected cells; host or cells: HEK 293
- Sequence (Q01726 whole entry): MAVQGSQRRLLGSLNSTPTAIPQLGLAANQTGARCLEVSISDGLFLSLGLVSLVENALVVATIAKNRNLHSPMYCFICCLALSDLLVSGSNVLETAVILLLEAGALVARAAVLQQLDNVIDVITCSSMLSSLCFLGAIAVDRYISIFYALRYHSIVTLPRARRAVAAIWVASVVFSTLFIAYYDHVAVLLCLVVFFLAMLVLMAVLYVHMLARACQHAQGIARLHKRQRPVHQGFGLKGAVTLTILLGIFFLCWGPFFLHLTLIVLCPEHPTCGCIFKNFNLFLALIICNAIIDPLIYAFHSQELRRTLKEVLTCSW
- test: Melanocortin receptor binding assay, competition with 125I-HP 467, HEK 293 cells expressing hMCR-1
- condition-details: inhibition of binding of 125I-HP 467, HEK 293 cells expressing MCR-1; read-out: MC-1 IC50

# molecule, tgt, IC50 / µM
rows = [
    ("CCCCNc1ccc(C2C(CN)c3ccccc3CN2CCCC(N)CN)cc1 (stereo not shown) [TRG 2411-216]", "MCR-1 (Homo sapiens, UniProt Q01726)", 0.11),
    ("CCNc1ccc(C2C(CNCCc3ccccc3)c3ccccc3CN2CCCC(CN)NCCCCNCc2ccccc2)cc1 (stereo not shown) [TRG 2419-3]", "MCR-1 (Homo sapiens, UniProt Q01726)", 0.049),
    ("CCCCNc1ccc(C2C(CNCCc3ccccc3)c3ccccc3CN2CCCC(CN)NCCCC)cc1 (stereo not shown) [TRG 2411-191]", "MCR-1 (Homo sapiens, UniProt Q01726)", 0.12),
    ("CCNc1ccc(C2C(CNCCc3ccccc3)c3ccccc3CN2CCCC(CN)NCc2ccc(OC)cc2)cc1 (stereo not shown) [TRG 2411-160]", "MCR-1 (Homo sapiens, UniProt Q01726)", 0.09),
    ("CCNc1ccc(C2C(CNCCc3ccccc3)c3ccccc3CN2CCCC(CN)NCCCCCNC(C)C)cc1 (stereo not shown) [TRG 2420-1]", "MCR-1 (Homo sapiens, UniProt Q01726)", 0.046),
    ("CCNc1ccc(C2C(CN)c3ccccc3CN2CCCC(CN)NCc2ccccc2)cc1 (stereo not shown) [TRG 2411-182]", "MCR-1 (Homo sapiens, UniProt Q01726)", 0.2),
    ("CNC(CN)CCCCN1Cc2ccccc2C(CNCCc2ccccc2)C1c1ccc([N+](=O)[O-])cc1 (mixture of isomers) [TRG 2413-5]", "MCR-1 (Homo sapiens, UniProt Q01726)", 4.88),
    ("CNC(CN)CCCN1Cc2ccccc2C(CN)C1c1ccc(-c2ccccc2)cc1 (stereo not shown) [TRG 2413-8]", "MCR-1 (Homo sapiens, UniProt Q01726)", 1.84),
    ("NCC(CCCCN1Cc2ccccc2C(CNCCc2ccc(O)cc2)C1c1cc(C(F)(F)F)cc(C(F)(F)F)c1)NCc1ccc(Br)cc1 (mixture of isomers) [TRG 2421-8]", "MCR-1 (Homo sapiens, UniProt Q01726)", 5),
    ("CCCCNc1ccc(C2C(CO)c3ccccc3CN2CCCC(CN)NCCC2CCCCC2)cc1 (stereo not shown) [TRG 2415-1]", "MCR-1 (Homo sapiens, UniProt Q01726)", 1.93),
    ("CCNc1ccc(C2C(CNCCc3ccccc3)c3ccccc3CN2CCCC(CN)NC)cc1 (stereo not shown) [TRG 2413-12]", "MCR-1 (Homo sapiens, UniProt Q01726)", 0.19),
    ("CCNc1ccc(C2C(CN)c3ccccc3CN2CCC[C@@H](CN)NCCCCOc2ccccc2)cc1 (stereo partly shown) [2424#2]", "MCR-1 (Homo sapiens, UniProt Q01726)", 0.05),
    ("CCCCCc1ccc(C2C(CN)c3ccccc3CN2CCCC(CN)NCCC2CCCCC2)cc1 (stereo not shown) [TRG 2415-14]", "MCR-1 (Homo sapiens, UniProt Q01726)", 1.69),
    ("NCC(CCCN1Cc2ccccc2C(CNC2CCCCC2)C1c1ccc([N+](=O)[O-])cc1)NCCc1ccccc1 (stereo not shown) [TRG 2413-14]", "MCR-1 (Homo sapiens, UniProt Q01726)", 1.57),
    ("COc1ccc(CCNCC2c3ccccc3CN(CCCCC(CN)NCc3ccccc3)C2c2cccc(C(F)(F)F)c2)cc1 (stereo not shown) [TRG 2421-43]", "MCR-1 (Homo sapiens, UniProt Q01726)", 2.15),
    ("NCC(CCCCN1Cc2ccccc2C(CNCCc2ccccc2)C1c1cc(C(F)(F)F)cc(C(F)(F)F)c1)NCc1ccccc1 (stereo not shown) [TRG 2421-1]", "MCR-1 (Homo sapiens, UniProt Q01726)", 4.18),
    ("CCNc1ccc(C2C(CNCCc3ccccc3)c3ccccc3CN2CCCC(CN)NCc2ccccc2CNC(C)C)cc1 (stereo not shown) [TRG 2420-13]", "MCR-1 (Homo sapiens, UniProt Q01726)", 0.065),
    ("COc1ccc(CCNCC2c3ccccc3CN(CCCCC(CN)NCc3ccc(-c4ccccc4)cc3)C2c2cc(C(F)(F)F)cc(C(F)(F)F)c2)cc1OC (stereo not shown) [TRG 2421-20]", "MCR-1 (Homo sapiens, UniProt Q01726)", 4.22),
    ("COc1ccc(CNC(CN)CCCCN2Cc3ccccc3C(CNCCc3cccc(OC)c3)C2c2cccc(C(F)(F)F)c2)cc1 (stereo not shown) [TRG 2421-48]", "MCR-1 (Homo sapiens, UniProt Q01726)", 1.74),
]

* * *

- tgt: MCR-1 (Homo sapiens, UniProt Q01726)
- Construct: expressed in transfected cells; host or cells: HEK 293
- test: Melanocortin receptor binding assay, competition with 125I-HP 467, HEK 293 cells expressing hMCR-1
- condition-details: inhibition of binding of 125I-HP 467, HEK 293 cells expressing MCR-1; read-out: MC-1 IC50
value-kind: IC50 (nM)

# molecule, measured-value
rows = [
    ("NCCNC(CN)CCCN1Cc2ccccc2C(CN)C1c1ccc(-c2ccccc2)cc1 (stereo not drawn)", 1540),
    ("Cc1ccc(CNC(CN)CCCCN2Cc3ccccc3C(CNCCc3ccc(Cl)cc3)C2c2cc(C(F)(F)F)cc(C(F)(F)F)c2)cc1 (stereo not drawn)", 5770),
    ("COc1ccc(CCNCC2c3ccccc3CN(CCCCC(CN)NCc3ccc(C)cc3)C2c2cc(C(F)(F)F)cc(C(F)(F)F)c2)cc1OC (mixture of isomers)", 2060),
]

* * *

- tgt: MCR-1 (Homo sapiens, UniProt Q01726)
- Construct: expressed in transfected cells; host or cells: HEK 293
- test: Melanocortin receptor binding assay, competition with 125I-HP 467, HEK 293 cells expressing hMCR-1
- condition-details: inhibition of binding of 125I-HP 467, HEK 293 cells expressing MCR-1; TRG 2414 library; read-out: MC-1 IC50
- Description: All cell culture media and reagents were obtained from GibcoBRL (Gaithersburg Md.), except for COSMIC CALF SERUM (HyClone; Logan Utah). Cells were suspended in PBS, 10% COSMIC CALF SERUM and 1 mM CaCl2. […] To assay isoquinoline compounds, binding assays were performed in duplicate in a 96 well format. […] Cells were harvested on GF/B filter plates as described above and counted.
pIC50: −log10 of the molar value.
Please mark met if the recorded pIC50 is equal to or greater than 5, and not met if it falls below.

# molecule, assigned-label
measured = [
    ("NC[C@H](CCCCN1Cc2ccccc2C(CNCc2ccccc2C(F)(F)F)C1c1ccc(Oc2ccccc2)cc1)NCc1ccccc1 (stereo partly shown) [TRG 2414-123]", "not met"),
    ("CCOc1ccccc1CNCC1c2ccccc2CN(CCCCC(N)CN)C1c1ccc(Oc2ccccc2)cc1 (stereo not shown) [TRG 2414-125]", "met"),
    ("COc1ccccc1CCNCC1c2ccccc2CN(CCCCC(N)CN)C1c1cccc(Oc2ccccc2)c1 (stereo not shown) [TRG 2414-89]", "met"),
    ("NCC(N)CCCCN1Cc2ccccc2C(CNCc2ccccc2)C1c1cccc(Oc2ccccc2)c1 (stereo not shown) [TRG 2414-109]", "met"),
    ("COc1ccccc1CCNCC1c2ccccc2CN(CCCCC(CN)NCC(C)c2ccc(CC(C)C)cc2)C1c1ccc(Oc2ccccc2)cc1 (stereo not shown) [TRG 2414-132]", "not met"),
    ("NCC(N)CCCCN1Cc2ccccc2C(CNC2CCCCCC2)C1c1cccc(Oc2ccccc2)c1 (stereo not shown) [TRG 2414-113]", "met"),
    ("CCCOc1ccc(C2C(CNCCc3cccc(Cl)c3)c3ccccc3CN2CCCCC(CN)NCCc2ccccc2)cc1 (mixture of isomers) [TRG 2414-174]", "met"),
    ("NCC(CCCCN1Cc2ccccc2C(CNCc2ccccc2)C1c1ccc(Oc2ccccc2)cc1)NCc1ccccc1 (stereo not shown) [TRG 2414-151]", "met"),
    ("COc1ccccc1CCNCC1c2ccccc2CN(CCCCC(CN)NCCc2ccccc2)C1c1ccc(Oc2ccccc2)cc1 (stereo not shown) [TRG 2414-130]", "met"),
]

* * *

- tgt: MCR-1 (Homo sapiens)
- Construct: expressed in transfected cells; host or cells: HEK 293
- test: Melanocortin receptor binding assay, competition with 125I-HP 467, HEK 293 cells expressing hMCR-1
- condition-details: TRG 2408 and TRG 2409 libraries; inhibition of 125I-HP 467 binding; read-out: MC-1 IC50
# IC50 per entry

# compound, unit-abbreviation, IC50
rows = [
    ("CCNc1ccc(C2C(CNC3CCCCC3)c3ccccc3CN2CCC(CN)NCCc2ccccc2)cc1 (centres unmarked)", "nM", 4510),
    ("NCC(N)CCN1Cc2ccccc2C(CNC2CCCCC2)C1c1ccc(Cl)cc1Cl (centres unmarked)", "nM", 7890),
    ("CNCCNC(CN)CCCCN1Cc2ccccc2C(CNC2CCCCC2)C1c1ccc(-c2ccccc2)cc1 (mixture of isomers)", "nM", 1940),
    ("CNCCNC(CN)CCCN1Cc2ccccc2C(CNC2CCCCC2)C1c1ccc(Cl)cc1Cl (centres unmarked)", "nM", 1560),
    ("NC[C@H](CCCN1Cc2ccccc2C(CNC2CCCCC2)C1c1ccc(Cl)cc1Cl)NCCc1ccccc1 (some centres unmarked)", "nM", 1940),
    ("NCCNC(CN)CCN1Cc2ccccc2C(CNC2CCCCC2)C1c1ccc(Cl)cc1Cl (centres unmarked)", "nM", 5410),
    ("CNC(CN)CCN1Cc2ccccc2C(CNC2CCCCC2)C1c1ccc(Cl)cc1Cl (centres unmarked)", "nM", 6980),
    ("NCC(CCCCN1Cc2ccccc2C(CNC2CCCCC2)C1c1ccc(-c2ccccc2)cc1)NCCc1ccccc1 (centres unmarked) [TRG 2408-52]", "nM", 3690),
    ("NCCNC(CN)CCCCN1Cc2ccccc2C(CNC2CCCCC2)C1c1ccc(-c2ccccc2)cc1 (centres unmarked) [TRG 2408-53]", "nM", 1000),
    ("CCNc1ccc(C2C(CNCc3ccccc3OC)c3ccccc3CN2CCC(CN)NCCN)cc1 (centres unmarked)", "nM", 1820),
    ("CN[C@@H](CN)CCCCN1Cc2ccccc2C(CNC2CCCCC2)C1c1ccc(Cl)cc1Cl (some centres unmarked)", "nM", 2430),
    ("NCC(N)CCCN1Cc2ccccc2C(CNC2CCCCC2)C1c1ccc(-c2ccccc2)cc1 (centres unmarked)", "nM", 4410),
    ("CCNc1ccc(C2C(CNC3CCCCC3)c3ccccc3CN2CCCCC(N)CN)cc1 (mixture of isomers) [TRG 2408-31]", "nM", 1270),
    ("NCCNC(CN)CCCCN1Cc2ccccc2C(CNC2CCCCC2)C1c1ccc(Cl)cc1Cl (centres unmarked) [TRG 2408-43]", "nM", 1630),
    ("NCCNC(CN)CCCCN1Cc2ccccc2C(CNC2CCCCC2)C1c1ccc(-c2ccccc2)cc1 (centres unmarked) [TRG 2408-23]", "nM", 820),
    ("CCNc1ccc(C2C(CNC3CCCCC3)c3ccccc3CN2CCCCC(CN)NCCNC)cc1 (centres unmarked) [TRG 2408-34]", "nM", 2140),
    ("CCNc1ccc(C2C(CNC3CCCCC3)c3ccccc3CN2CC[C@@H](CN)NC)cc1 (some centres unmarked)", "nM", 5900),
    ("CNCCN[C@@H](CN)CCCCN1Cc2ccccc2C(CNC2CCCCC2)C1c1ccc(-c2ccccc2)cc1 (some centres unmarked)", "nM", 610),
    ("CCNc1ccc(C2C(CNC3CCCCC3)c3ccccc3CN2CCCCC(CN)NC)cc1 (centres unmarked)", "nM", 1170),
    ("CNCCNC(CN)CCCCN1Cc2ccccc2C(CNC2CCCCC2)C1c1ccc(Cl)cc1Cl (centres unmarked) [TRG 2408-16]", "nM", 1790),
    ("NCCNC(CN)CCN1Cc2ccccc2C(CNC2CCCCC2)C1c1ccc(-c2ccccc2)cc1 (centres unmarked)", "nM", 3780),
    ("CNCCNC(CN)CCN1Cc2ccccc2C(CNC2CCCCC2)C1c1ccc(Cl)cc1Cl (centres unmarked)", "nM", 5650),
    ("CNC(CN)CCCCN1Cc2ccccc2C(CNC2CCCCC2)C1c1ccc(-c2ccccc2)cc1 (centres unmarked)", "nM", 1550),
]
